Tested on: L1210
Test: In vitro growth inhibition (MTT), L1210
Format: cell-based
Conditions: Mus musculus, continuous (72-hour) exposure, mean IC50, read-out: IC50 Cell Culture L1210
measured property: pIC50
Kindly note that pIC50 refers to -log10 of the concentration in mol/L and answer with the value alone.

compound="Cc1cc(C(=O)N[C@@H](CCC(=O)O)C(=O)O)sc1CCC1CNc2nc(N)[nH]c(=O)c2C1 (some centres unmarked) [Compound 1]" measured_property=pIC50 endpoint_result=7.87

We now examine a further compound.
Ask: Can you look up the measured pIC50 of Nc1nc2c(c(=O)[nH]1)CC(CCc1ccc(C(=O)N[C@@H](CCC(=O)O)C(=O)O)cc1)CN2 (some centres unmarked) [DDATHF, 5,10-dideazatetrahydrofolic acid] for me?
Result: 7.76

* * *

Tested on: CCRF-CEM
Experiment: In vitro growth inhibition (MTT), CCRF-CEM
Assay type: cell-based
Settings: Homo sapiens, title: continuous (72-hour) exposure, incubation 5 days, mean IC50, read-out: IC50 Cell Culture CCRF-CEM
Measured IC50 accompanies every entry in the list below.
Lab book: enter the figure in nM, no units written.

compound="Nc1nc2c(c(=O)[nH]1)CC(CCc1ccc(C(=O)N[C@@H](CCC(=O)O)C(=O)O)cc1)CN2 (some centres unmarked) [DDATHF, 5,10-dideazatetrahydrofolic acid]" endpoint_result=1.5

Ask: Can you look up the measured IC50 of Cc1cc(C(=O)N[C@@H](CCC(=O)O)C(=O)O)sc1CCC1CNc2nc(N)[nH]c(=O)c2C1 (some centres unmarked) [Compound 1] for me?
Result: 6.1
